Data origin, for the record: paper PMC8199124

- Test system: SW480
- experiment: Cytotoxicity (MTT) under normoxia, SW480
- Format: cell-based
- test.parameters: Homo sapiens, SW480, read-out: IC50 SW480
Would you kindly list IC50 for each of these compounds?

For this compound ( COc1cc2c3c(c4cc(OC)c(OC)cc4c2cc1OC)CN1CCC[C@H]1C3 [(S)-Tylophorine] ), measured IC50 is 69 nM

For this compound ( COc1cc2c3c(c4cc(OC)c(OC)cc4c2cc1OC)CN1CCC[C@@H]1C3 [(R)-Tylophorine] ), measured IC50 is 1150 nM

For this compound ( COc1cc2c3c(c4cc(OC)c(OC)cc4c2cc1OC)C[N+]1(Cc2c([N+](=O)[O-])ncn2C)CCC[C@@H]1C3.[Br-] (some centres unmarked) ), measured IC50 is 9860 nM

For this compound ( COc1ccc2c3c(c4cc(OC)c(OC)cc4c2c1)C[C@H]1CCC[N+]1(Cc1c([N+](=O)[O-])ncn1C)C3.[Br-] (some centres unmarked) ), measured IC50 is 1350 nM

For this compound ( COc1cc2c3c(c4cc(OC)c(OC)cc4c2cc1OC)C[N+]1(Cc2c([N+](=O)[O-])ncn2C)CCC[C@H]1C3.[Br-] (some centres unmarked) ), measured IC50 is 7240 nM
